- subject-of-test: Cytochrome P450 3A4 (Homo sapiens, UniProt P08684)
- Sequence (P08684 whole entry): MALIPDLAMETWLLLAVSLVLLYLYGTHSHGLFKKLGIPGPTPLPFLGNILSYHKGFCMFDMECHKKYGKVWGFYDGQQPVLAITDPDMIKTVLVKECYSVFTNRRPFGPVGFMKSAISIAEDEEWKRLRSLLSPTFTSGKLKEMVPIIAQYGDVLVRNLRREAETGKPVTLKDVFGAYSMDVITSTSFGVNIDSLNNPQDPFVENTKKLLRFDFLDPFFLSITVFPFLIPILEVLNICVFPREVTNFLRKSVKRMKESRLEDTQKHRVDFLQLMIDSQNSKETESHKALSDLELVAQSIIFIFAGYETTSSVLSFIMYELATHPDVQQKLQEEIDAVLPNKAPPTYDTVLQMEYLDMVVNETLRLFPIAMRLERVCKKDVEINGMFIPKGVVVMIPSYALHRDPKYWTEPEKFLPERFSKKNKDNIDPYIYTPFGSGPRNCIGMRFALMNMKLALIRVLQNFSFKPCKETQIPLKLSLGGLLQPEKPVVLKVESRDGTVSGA
value-type: AC50

Please review the following examples before continuing.
compound | subject-of-test | AC50
CO[C@@H]1COC(=O)[C@H](COCc2ccccc2)NC(=O)C/C=C\[C@@H](C)[C@H](OC)COC(=O)[C@@H](C)NC(=O)C/C=C\[C@H]1C | Cytochrome P450 3A4 (Homo sapiens, UniProt P08684) | 3.16 µM (inconclusive)
Cn1c(=O)cc(OCCCC(=O)N2CCN(c3ccccc3)CC2)c2ccccc21 | Cytochrome P450 3A4 (Homo sapiens, UniProt P08684) | 1.12 µM (inconclusive)
O=C1NC(c2ccc(Br)cc2)Nc2sc3c(c21)CCC3 (centres undefined) | Cytochrome P450 3A4 (Homo sapiens, UniProt P08684) | 28.2 µM (inconclusive)
COc1ccc(C(CNC(=O)c2cc(O)nc3ccccc23)N2CCCC2)cc1 (centres undefined) | Cytochrome P450 3A4 (Homo sapiens, UniProt P08684) | 15.8 µM (inconclusive)
CCC[C@@H]1C[C@@]1(CCC)C(NC(=O)OCc1ccccc1)c1ccc(-c2ccccc2)cc1 (some centres undefined) | Cytochrome P450 3A4 (Homo sapiens, UniProt P08684) | 3.98 µM (inconclusive)
CCNC(=O)CSc1nnc(C2CC2)n1-c1ccccc1 | Cytochrome P450 3A4 (Homo sapiens, UniProt P08684) | 28.2 µM (inconclusive)
Oc1ccc2c3c1O[C@H]1c4oc5ccccc5c4C[C@]4(O)[C@H](C2)N(CC2CC2)CC[C@@]314 | Cytochrome P450 3A4 (Homo sapiens, UniProt P08684) | 15.8 µM (inconclusive)
CC1(C)CC2(CCO1)OC(=O)CC2C(=O)NCCc1ccccc1 (centres undefined) | Cytochrome P450 3A4 (Homo sapiens, UniProt P08684) | 28.2 µM (inconclusive)

Now for a further compound.
Fill in AC50 for record C[C@H](O)C(=O)C1=Nc2c(nc(N)[nH]c2=O)NC1 [SEPIAPTERIN]
0.316 µM (inconclusive)

###

- subject-of-test: DNA dC->dU-editing enzyme APOBEC-3A (Homo sapiens, UniProt P31941)
- Sequence (P31941 whole entry): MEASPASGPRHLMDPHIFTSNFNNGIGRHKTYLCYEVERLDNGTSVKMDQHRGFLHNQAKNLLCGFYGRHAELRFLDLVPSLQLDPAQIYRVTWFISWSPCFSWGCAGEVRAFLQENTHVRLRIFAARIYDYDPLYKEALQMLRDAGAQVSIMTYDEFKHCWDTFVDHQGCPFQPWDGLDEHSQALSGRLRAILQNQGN
- procedure-text: Dose Response confirmation of small molecule APOBEC3A DNA Deaminase Inhibitors via a fluorescence-based single-stranded DNA deaminase assay. [Related pubchem assays (depositor defined):AID493011, AID493024]
- Format: functional
Calls of active or inactive are those of the source. How the calls were made is not given here.
The following molecules are listed with their measured IC50 values.

Please review the following examples before continuing.
molecule | subject-of-test | value-type | reported-measurement
Cn1c2ccccc2c2cc(/C=N/NC(=O)c3cc(O)cc(O)c3)ccc21 | DNA dC->dU-editing enzyme APOBEC-3A (Homo sapiens, UniProt P31941) | IC50 | 16.2 µM (active)
Cc1ccc(N(Cc2cc3cccc(C)c3nc2O)S(=O)(=O)c2ccccc2)c(C)c1 | DNA dC->dU-editing enzyme APOBEC-3A (Homo sapiens, UniProt P31941) | IC50 | 4.45 µM (active)
Cc1ccc(C)c(SCC(=O)OCC(=O)c2ccco2)c1 | DNA dC->dU-editing enzyme APOBEC-3A (Homo sapiens, UniProt P31941) | IC50 | 18 µM (active)
CSC1=NCCN1CCOc1ccccc1 | DNA dC->dU-editing enzyme APOBEC-3A (Homo sapiens, UniProt P31941) | IC50 | 6.77 µM (active)
CCC(=O)c1ccc(OCC(=O)Nc2cc(S(=O)(=O)N3CCCCC3)ccc2N2CCN(CC)CC2)cc1 | DNA dC->dU-editing enzyme APOBEC-3A (Homo sapiens, UniProt P31941) | IC50 | 3.32 µM (active)

Fill in IC50 for record COc1ccc(-n2c(C)cc(C(=O)C[N+]34CCN(CC3)CC4)c2C)cc1
2.64 µM (active)
